Recorded values, source paper PMC7497679.

# TARGET_OR_TEST_SYSTEM: X-linked inhibitor of apoptosis protein (XIAP) BIR3 domain (human)
# EXPERIMENTAL_PROTOCOL: fluorescence polarisation; competition: XIAP BIR3 (50 nM) added to the competitor (50 µM to 0.640 nM or to 0.0537 nM), 15 min at r.t., then probe 4 (2 nM), read 30 min later; phosphate buffer pH 7.5 with γ-globulin 100 µg/mL and NaN3 0.02%, final DMSO 1.4%
MEASURED_METRIC: pEC50
Scale explanation: pEC50 corresponds to minus log10 of a concentration expressed in moles per litre.

## Task Which pEC50 is listed for H-AVPW-OH [tetrapeptide H2N-Ala-Val-Pro-Trp-OH (3)] ?
## Result 6.47
